Below, each entry is listed alongside its reported glycan array binding signal (z-score).
Tgt: Fuc(a1-3)[Gal(b1-4)]GlcNAc(b1-6)[Neu5Ac(a2-3)Gal(b1-3)]GalNAc
Experiment: glycan array binding signal (z-score within array); higher = stronger binding
Condition parameters: glycan notation: IUPAC condensed, linker removed
This is one part of a sample in which the strongest signals are shown more often than they occur.

| Binder | glycan array binding signal (z-score) |
| --- | --- |
| OrysaEULS2 (Oryza sativa) (protein) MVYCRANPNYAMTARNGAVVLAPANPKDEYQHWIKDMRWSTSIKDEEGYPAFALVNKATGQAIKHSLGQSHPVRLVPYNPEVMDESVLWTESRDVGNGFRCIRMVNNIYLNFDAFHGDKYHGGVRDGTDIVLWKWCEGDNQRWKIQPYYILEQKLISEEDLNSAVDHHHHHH | -0.16 |
| PpFlo1 (Pichia pastoris) (protein) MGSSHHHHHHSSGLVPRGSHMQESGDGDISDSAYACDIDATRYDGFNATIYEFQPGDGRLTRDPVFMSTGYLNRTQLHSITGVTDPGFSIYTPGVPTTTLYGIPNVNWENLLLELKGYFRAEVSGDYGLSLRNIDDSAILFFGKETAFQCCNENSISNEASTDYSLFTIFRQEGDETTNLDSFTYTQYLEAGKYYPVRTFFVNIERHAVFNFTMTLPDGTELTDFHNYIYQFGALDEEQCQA | 3.09 |
| Nictaba (Nicotiana tabacum), Q94EW1 (protein) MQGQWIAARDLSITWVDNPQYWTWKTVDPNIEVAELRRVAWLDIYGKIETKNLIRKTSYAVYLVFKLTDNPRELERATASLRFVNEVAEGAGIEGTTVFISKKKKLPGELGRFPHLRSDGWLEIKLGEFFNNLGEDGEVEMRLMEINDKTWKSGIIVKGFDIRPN | -0.295 |
